// data source = patent US8993542B2

# Test system: PBMCs
# TEST_SUMMARY: Cytotoxicity (TC50) in PBMCs
# Format: cell-based
# COND: isolate TH/93/073, subtype E; read-out: TC 50 (the source's name)
OBSERVED_PROPERTY: CC50

Q: For the compound "CCCCCCCCCCCCCCCCOCCCOP(=O)(O)CO[C@H](C)Cn1cnc2c(N)ncnc21" , give its measured CC50 value.
A: > 1 µM

---

# Test system: PBMCs
# TEST_SUMMARY: Cytotoxicity (TC50) in PBMCs
# Assay type: cell-based
# COND: isolate BR/93/019, subtype F; read-out: TC 50 (the source's name)
OBSERVED_PROPERTY: CC50

Q: For the molecule "CCCCCCCCCCCCCCCCOCCCOP(=O)(O)CO[C@H](C)Cn1cnc2c(N)ncnc21" , give its measured CC50 value.
A: > 1000 nM

---

# TEST_SUMMARY: Toxicokinetics and 7-day toxicity after oral administration of CMX157 to rats
# Assay type: in vivo
# COND: rat plasma, oral CMX157 10 mg/kg, day 7; read-out: AUC0-24
OBSERVED_PROPERTY: AUC(0-t) (ng·h/mL)
Your answer is read as ng·h/mL, so omit the unit and give the number.

Q: For the molecule "CCCCCCCCCCCCCCCCOCCCOP(=O)(O)CO[C@H](C)Cn1cnc2c(N)ncnc21" , give its measured AUC(0-t) value.
A: 435

---

# Tested on: PBMCs
# TEST_SUMMARY: Cytotoxicity (TC50) in PBMCs
# Assay type: cell-based
# COND: isolate BR/93/020, subtype F; read-out: TC 50 (the source's name)
OBSERVED_PROPERTY: CC50

Q: For the compound "CCCCCCCCCCCCCCCCOCCCOP(=O)(O)CO[C@H](C)Cn1cnc2c(N)ncnc21" , give its measured CC50 value.
A: > 1000 nM

---

# System: HIV
# TEST_SUMMARY: microbe, parasite or virus in culture
# Type: cell-based
# COND: Human immunodeficiency virus 1, PANEL 46, D67N + K70E
Each entry below lists one item and its recorded IC50 value.
Your answer is read as nM, so omit the unit and give the number.

Some compounds with known IC50 results, for comparison:
Nc1nc(=O)n(C2CSC(CO)O2)cc1F (stereo not drawn); 3390
Nc1nc(NC2CC2)c2ncn([C@H]3C=C[C@@H](CO)C3)c2n1; 2420

Now look at this entry.
Q: For the compound Cc1cn([C@H]2C=C[C@@H](CO)O2)c(=O)[nH]c1=O [d4T, 2′,3′-didehydro-3′-deoxythymidine] , give its measured IC50 value.
A: 560

---

# System: PBMCs
# TEST_SUMMARY: Cytotoxicity (TC50) in PBMCs
# Type: cell-based
# COND: isolate RU132, subtype G; read-out: TC 50 (the source's name)
OBSERVED_PROPERTY: CC50

Q: For the compound "CCCCCCCCCCCCCCCCOCCCOP(=O)(O)CO[C@H](C)Cn1cnc2c(N)ncnc21" , give its measured CC50 value.
A: > 1000 nM

---

# Tested on: PBMCs
# TEST_SUMMARY: Cytotoxicity (TC50) in PBMCs
# Assay type: cell-based
# COND: isolate UG/92/037, subtype A; read-out: TC 50 (the source's name)
OBSERVED_PROPERTY: CC50

Q: For the compound "CCCCCCCCCCCCCCCCOCCCOP(=O)(O)CO[C@H](C)Cn1cnc2c(N)ncnc21" , give its measured CC50 value.
A: > 1000 nM
